Data origin, for the record: patent US20060045953A1

# Tested On: hT1R1/hT1R3 umami receptor (Homo sapiens, UniProt Q7RTX0+Q7RTX1)
# Construct: expressed in transfected cells; host or cells: HEK293 derivative stably expressing Gα15, clone I-17, expression induced with mifepristone
# Sequence (Q7RTX1 21-841): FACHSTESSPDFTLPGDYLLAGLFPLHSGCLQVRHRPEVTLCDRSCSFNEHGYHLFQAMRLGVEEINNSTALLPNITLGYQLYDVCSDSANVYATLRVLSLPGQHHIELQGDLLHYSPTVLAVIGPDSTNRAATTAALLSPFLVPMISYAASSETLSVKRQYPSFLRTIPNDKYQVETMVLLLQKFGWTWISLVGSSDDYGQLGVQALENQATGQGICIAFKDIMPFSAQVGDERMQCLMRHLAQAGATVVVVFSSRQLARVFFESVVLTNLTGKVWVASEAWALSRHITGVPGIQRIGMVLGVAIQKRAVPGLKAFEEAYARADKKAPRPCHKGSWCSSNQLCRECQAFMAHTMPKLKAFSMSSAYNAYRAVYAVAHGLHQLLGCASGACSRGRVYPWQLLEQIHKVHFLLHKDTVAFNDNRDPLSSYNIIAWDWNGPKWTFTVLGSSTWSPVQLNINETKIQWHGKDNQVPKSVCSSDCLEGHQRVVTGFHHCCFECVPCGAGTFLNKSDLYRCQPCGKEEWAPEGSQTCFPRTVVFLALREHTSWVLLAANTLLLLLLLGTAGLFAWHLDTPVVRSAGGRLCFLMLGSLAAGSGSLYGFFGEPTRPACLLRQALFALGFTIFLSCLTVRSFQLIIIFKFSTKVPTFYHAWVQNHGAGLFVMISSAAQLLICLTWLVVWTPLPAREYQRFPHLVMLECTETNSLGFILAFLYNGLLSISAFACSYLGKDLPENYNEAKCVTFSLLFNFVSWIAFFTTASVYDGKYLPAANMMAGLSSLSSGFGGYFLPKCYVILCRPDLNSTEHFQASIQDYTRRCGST
# Sequence (Q7RTX0 21-852): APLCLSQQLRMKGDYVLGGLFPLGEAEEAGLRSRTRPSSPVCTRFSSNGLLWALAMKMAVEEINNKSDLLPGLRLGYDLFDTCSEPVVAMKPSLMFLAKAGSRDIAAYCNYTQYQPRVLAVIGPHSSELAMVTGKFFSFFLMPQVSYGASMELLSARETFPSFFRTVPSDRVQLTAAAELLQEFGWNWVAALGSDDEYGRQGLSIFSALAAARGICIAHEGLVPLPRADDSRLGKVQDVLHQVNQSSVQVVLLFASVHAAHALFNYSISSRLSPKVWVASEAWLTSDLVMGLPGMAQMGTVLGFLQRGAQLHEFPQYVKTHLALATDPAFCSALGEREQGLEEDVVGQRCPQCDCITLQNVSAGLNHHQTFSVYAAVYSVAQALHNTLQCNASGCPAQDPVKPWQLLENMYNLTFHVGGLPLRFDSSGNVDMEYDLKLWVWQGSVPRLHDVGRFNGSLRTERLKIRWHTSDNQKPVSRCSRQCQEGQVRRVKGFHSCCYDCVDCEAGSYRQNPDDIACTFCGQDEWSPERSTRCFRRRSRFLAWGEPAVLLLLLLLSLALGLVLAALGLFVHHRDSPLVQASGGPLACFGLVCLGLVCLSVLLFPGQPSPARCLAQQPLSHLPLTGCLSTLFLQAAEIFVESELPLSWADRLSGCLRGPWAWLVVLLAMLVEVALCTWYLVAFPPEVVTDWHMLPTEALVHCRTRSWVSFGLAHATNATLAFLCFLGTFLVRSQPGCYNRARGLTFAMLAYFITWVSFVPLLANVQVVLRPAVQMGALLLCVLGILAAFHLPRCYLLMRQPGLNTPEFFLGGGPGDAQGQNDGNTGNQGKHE
# Experiment Notes: In vitro hT1R1/hT1R3 umami taste receptor activation assay (FLIPR, dose response)
# Type: cell-based
# Measurement Context: read-out: EC50 for activation of a hT1R1/hT1R3 umami receptor expressed in an HEK293 cell line
Kindly supply the reported pEC50 values for the records listed here.
Give bare numbers, as −log10 of the molar value.

>>> value_reported("COC(=O)[C@H](NC(=O)c1ccc2c(c1)OCO2)C(C)C")
5.94

Fill in pEC50 for each of the 7 compounds listed.
1. CCCC(CCC)NC(=O)Nc1ccccc1Cl
2. COC(=O)[C@@H](CC(C)C)NC(=O)c1cc(C)c(C)o1
3. CC(C)C[C@@H](NC(=O)c1ccc2c(c1)OCO2)C(=O)N(C)C
4. Cc1ccccc1CNC(=O)C(=O)NCCc1ccccn1
5. CCCC(CCC)NC(=O)c1ccc2c(c1)OC(F)(F)O2
6. COC(=O)[C@@H](CC(C)C)NC(=O)c1cc(OC)nc(OC)c1
7. CCCC(CCC)NC(=O)c1ccc2nc(CCl)oc2c1

(A)
1. 6.43
2. 6.23
3. 5.97
4. 6.23
5. 5.82
6. 5.72
7. 6.35
